Record form. Attribute: IC50. Fill in for each entry.
target: full-length beta-Catenin (Uniprot ID P35222) (Homo sapiens (Human)) (UniProt P35222); test: fluorescence polarization competition; displacement of 5FAM-TCF4(10-53) from full-length beta-catenin
Starred links: 1 amine or outer side, 2 acyl side, 3 side chain; linkers in the order of their positions; H or OH if unused. Positions of bridges follow the written chain, without caps; N, C: chain ends. Non-standard residues stand in square brackets, D forms with d. Primed or numbered codes have the meaning given here. B5(4) = 2,2-bis(4-pentenyl)glycine = 2-amino-2-(pent-4-en-1-yl)hept-6-enoic acid (stitching residue), C=CCCCC(CCCC=C)(N[*:1])C(=O)[*:2]; B5(5) = 2,2-bis(4-pentenyl)glycine, 2-amino-2-(pent-4-en-1-yl)hept-6-enoic acid (stitching residue), C=CCCCC(CCCC=C)(N[*:1])C(=O)[*:2]; PyrS2 = (S)-3-amino-1-((pent-4-en-1-yloxy)carbonyl)pyrrolidine-3-carboxylic acid, C=CCCCOC(=O)N1CC[C@@](N[*:1])(C(=O)[*:2])C1; B5(27) = 2-amino-2-(pent-4-en-1-yl)hept-6-enoic acid (two alkene side-chain arms), C=CCCCC(CCCC=C)(N[*:1])C(=O)[*:2]; MePpzAsn = (S)-2-amino-4-(4-methylpiperazin-1-yl)-4-oxobutanoic acid, CN1CCN(C(=O)C[C@H](N[*:1])C(=O)[*:2])CC1; Nva(5-morpholino) = N[C@@H](CCCN1CCOCC1)C(=O)O; Bta = N[C@@H](Cc1csc2ccccc12)C(=O)O; αAllylPro = C=CC[C@@]1(C(=O)O)CCCN1; tBuAla = CC(C)(C)C[C@H](N)C(=O)O; 3Thi = N[C@@H](Cc1ccsc1)C(=O)O; S8 = C=CCCCCCC[C@](C)(N)C(=O)O; hSer = N[C@@H](CCO)C(=O)O; Nle = CCCC[C@H](N)C(=O)O
Could you give me the number in nM? Just the number is fine.

In: Find the recorded IC50 belonging to Ac-[αAllylPro]D[tBuAla][B5(27)]DDAAFL[PyrS2][3Thi][Bta]T-NH2 (staple 1-4, 4-11) [I-1494] and report it.
Out: 5

In: So what's the measured IC50 for this one? Ac-[αAllylPro]D[tBuAla][B5(4)]DDA[MePpzAsn]FL[PyrS2][3Thi][Bta]Q-NH2 (staple 1-4, 4-11) [I-1508: Ac-PL3-Asp-Npg-B5-Asp-Asp-Ala-MePpzAsn-Phe-Leu-PyrS2-3Thi-BztA-Gln-NH2]
Out: 87

In: So what does the record say about IC50 for Ac-[αAllylPro]D[Nle][B5(5)]DEAAF[hSer][S8]F[Bta]Q-NH2 (staple 1-4, 4-11) [I-1525: Ac-PL3-Asp-nLeu-B5-Asp-Glu-Ala-Ala-Phe-Hse-S8-Phe-BztA-Gln-NH2] ?
Out: 22

In: Record request: IC50 value, item Ac-[αAllylPro]D[tBuAla][B5(4)]DLAAFN[PyrS2][3Thi][Bta]Q-NH2 (staple 1-4, 4-11) [I-846]
Out: 56

In: Query (binder): Ac-[αAllylPro]D[tBuAla][B5(27)]DDA[Nva(5-morpholino)]FL[PyrS2][3Thi][Bta]Q-NH2 (staple 1-4, 4-11) [I-1501] ; field requested: IC50
Out: 46
